This listing pairs variants with measured self-cleavage.
B1: HDV Ribozyme (parent)
chain: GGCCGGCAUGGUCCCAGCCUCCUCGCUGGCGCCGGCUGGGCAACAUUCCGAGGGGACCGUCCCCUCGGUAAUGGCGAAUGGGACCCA

- Variants of: B1
- run.description: self-cleavage, relative activity (ratio to wild type); higher = more cleavage; co-transcriptional
# answer = number (no unit)

INSERT INTO measurements (seq_text, measured_property, observed_value) VALUES
  ('GGCCGUCAUGGUCCCAGCCUCCUCGCUGGCGCCGGCUGGGCAACAUUCCGAGGGGACCGUCCCCUCGGAAAUGGCGAAUGGGACCCA', 'self-cleavage', 0.415);

"GGCCGGCAUGGUCCCAGGCUCCUCGCUGGCGCCGGCUGGGCAACAUUCCGAAGGGACCGUCCCCUCGGUAAUGGCGAAUGGGACCCA" yielded self-cleavage of 0.156
